Here, each record is paired with measured Kd data.
Molecular target: T1, Recombinant, purified TRBC2 (soluble αβ TCR with the β-chain constant domain TRBC2), SPR analyte (Homo sapiens, HA1.7 TCR with TRBC2)
T1 construct: also called recombinant TRBC2; source: recombinant, purified
Experiment: SPR; Biacore T200; antibody as human IgG1 captured with an anti-human capture kit on CM5 to 200 RU; TRBC1 or TRBC2 as analyte, 150 s contact, 300 s dissociation, 30 μl/min, 25 °C, HBS-P+ pH 7.4; 1:1 Langmuir model
Conditions: both partners purified
Write the number in µM without appending the unit.

binder	Kd (µM)
Mut1 (HuJovi-1 VH T28K), human IgG1 (antibody, V domains shown, as the VH of m1 with the stated change; positions in Kabat numbering; constant region of the human IgG1 heavy chain; as the light chain of m1; IgG1; also called Lys28 mutant; Thr28Lys; source: ExpiCHO, transient transfection, purified (MabSelect SuRe)) VH: QVQLVQSGAEVKKPGASVKVSCKASGYKFTGYVMHWVRQAPGQGLEWMGFINPYNDDIQSNERFRGRVTMTRDTSISTAYMELSRLRSDDTAVYYCARGAGYNFDGAYRFFDFWGQGTMVTVSS VL: DIVMTQSPLSLPVTPGEPASISCRSSQRLVHSNGNTYLHWYLQKPGQSPRLLIYRVSNRFPGVPDRFSGSGSGTDFTLKISRVEAEDVGVYYCSQSTHVPYTFGQGTKLEIK	7.48

Kd measured on RFN (Mut4; HuJovi-1 VH T28R, Y32F, A96N), human IgG1 (antibody, V domains shown, as the VH of m1 with the stated changes; positions in Kabat numbering; constant region of the human IgG1 heavy chain; as the light chain of m1; IgG1 in the SPR; also called Arg28/Phe32/Asn96; source: ExpiCHO, transient transfection, purified (MabSelect SuRe)) VH: QVQLVQSGAEVKKPGASVKVSCKASGYRFTGFVMHWVRQAPGQGLEWMGFINPYNDDIQSNERFRGRVTMTRDTSISTAYMELSRLRSDDTAVYYCARGNGYNFDGAYRFFDFWGQGTMVTVSS VL: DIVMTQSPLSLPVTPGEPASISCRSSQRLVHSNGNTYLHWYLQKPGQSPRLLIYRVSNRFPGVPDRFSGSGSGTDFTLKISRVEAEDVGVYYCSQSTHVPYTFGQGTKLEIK = 0.582
